system: SNB-19 CNS; test: NCI tumour cell line growth inhibition, 48 h
metric: TGI

The following molecules have reported results that may help.
O=S(=O)(Nc1ccc(Cl)cc1)c1ccc(-c2cnc(C3CC3)o2)cc1 | 18.2 µM
COc1ccc(C(O)c2cc(OC)c(OC)c(OC)c2)cc1 (configuration not stated) | > 100 µM
CN1c2ccccc2NC(CC(=O)O)C2CC=CN21 (configuration not stated) | > 100 µM
CC(=O)C1C(=O)C(=O)N(c2ccc(Cl)c(Cl)c2)C1=O (configuration not stated) | > 100 µM
C=C1C(=O)OC2/C=C(/CO)C3(O)CC(O)C(C)(CC(OC(=O)/C(C)=C/C)C12)O3 (configuration not stated) | > 100 µM

Lab note: each molecule below needs its TGI filled in.
1. CCOC(=O)c1cn2c(n1)sc1cc(C)c(C)cc12
2. COC(=O)C1=C(C)C(=O)[C@H]2C(C(=O)OC)CCCC[C@@H]12 (some centres not stated)

1: 42.9 µM; 2: > 100 µM

###

test system: RPMI-8226 leukemia; test: NCI tumour cell line growth inhibition, 48 h
metric: TGI

CCCC(=O)c1c(NOC2OCC(OC(C)=O)C(OC(C)=O)C2OC(C)=O)nc(OC)n(C)c1=O (stereo not drawn) | > 100 µM

Lab note: each molecule below needs its TGI filled in.
1. S=C1N=C2C(=N1)n1c3c(c4ccccc41)CCCC23 (stereo not drawn)
2. COc1ccc(Oc2ccc3cc4c(cc3c2O)OCO4)c2cc(C)oc12
3. C[Si](C)(c1ccccc1)C1CC(=O)CC(=O)C1

1. 97.5 µM
2. 45.2 µM
3. > 100 µM

###

system: MCF7 breast; experiment: NCI tumour cell line growth inhibition, 48 h
metric: TGI (µM)
Answers are plain numbers, in µM.

The following compounds have reported results that may help.
COc1ccc2c(c1)NC(=O)CN2c1nc(NC2CC2)nc2ccccc12 | 14.7
CCOC(=O)/C=C\c1c(Cl)n(-c2ccccc2)c(=O)n(-c2ccccc2)c1=O | 46
COc1cc2c(oc(=O)c3cc(C)cc(OC)c32)c2c(C3OC(C)C(O)C(C)(O)C3O)ccc(O)c12 (stereo unspecified) | 3.99
Cc1cc(Cc2cc(Cc3cc(C)cc(C(C)(C)C)c3O)c(C)cc2C)c(O)c(C(C)(C)C)c1 | 27.2
Cc1cc(Oc2ccccc2)ccc1Nc1ncnc2ccc(-c3cnc(Cl)c(NS(C)(=O)=O)c3)cc12 | 13.1

Which TGI value belongs to "O=CN/N=C/c1ccc(Cl)c([N+](=O)[O-])c1" ? 58.6

###

test system: A498 renal; experiment: NCI tumour cell line growth inhibition, 48 h
Hi there, I'd appreciate the recorded TGI for every entry that follows.
Numbers only, in µM.

The following compounds have reported results that may help.
CC(=O)OC1CC2C(C)(C)C(=O)C=C[C@]2(C)C2CC[C@]3(C)C(OCC(=O)[C@H]3c3ccoc3)[C@]12C (some centres not stated) | 29.7
CCCCCCCCCCC(O)CCCCCCC(=O)O (configuration not stated) | 46.1
Cc1nn(CCO)c(C)c1N=[N+]([O-])c1c(C)nn(CCO)c1C | 29.8
CCOC(=O)c1cn2c(n1)sc1cc(C)c(C)cc12 | 32.6

# evaluate next
Hello, I am looking for reported TGI with A498 renal for CC(=O)OC1Oc2ccccc2-c2oc(=O)c(-c3ccc(F)cc3)cc21 (configuration not stated) . Could you help? 71.9

###

tested on: HCT-15 colon; assay: NCI tumour cell line growth inhibition, 48 h
metric: TGI

The following compounds have reported results that may help.
CC1(O)CCC(C(C)(C)O)CC1 (stereo not drawn) | > 100 µM
CC(=O)c1cc(I)c(O)c2ncccc12 | > 10 µM

# evaluate next
Which TGI value belongs to "CO/C(=N\N=Cc1ccccc1)c1ccncc1" ? > 100 µM

###

system: OVCAR-4 ovarian; assay: NCI tumour cell line growth inhibition, 48 h
metric: TGI

The following compounds have reported results that may help.
C=CCc1cccc2cc(C(N)=O)c(=N)oc12 | > 100 µM
CC(C)(CN1CCCCC1)C(=O)/C=C/c1ccc(Cl)c(Cl)c1 | 2.87 µM
c1ccc(C(NC2CCCCC2NCCNC2CCCCC2NC(c2ccccc2)(c2ccccc2)c2ccccc2)(c2ccccc2)c2ccccc2)cc1 (centres undefined) | > 100 µM

Lab note: each compound below needs its TGI filled in.
1. Cc1ccc(Cc2nc(=S)[nH][nH]2)cc1
2. NCCc1ccc2oc3cc(=O)c4ccccc4c-3nc2c1

["96.5 µM", "15.8 µM"]

Lab note: each compound below needs its TGI filled in.
1. CCCCOC(=O)C(=O)C(CC(CC)C(=O)c1ccccc1)C(=O)C=C(C)C (centres undefined)
2. COc1ccc(CCCNC(=O)Cc2cc(OC)c(OC)cc2CO)cc1OC
3. CCOC(=O)/C(C#N)=C/c1ccc(SCc2ccco2)c([N+](=O)[O-])c1
4. CCOP(=O)(OCC)/C(C#N)=C\c1ccc(OC(C)=O)cc1
5. NS(=O)(=O)c1nnc(NS(=O)(=O)c2ccc(F)cc2)s1
6. CC1(C)CC[C@]2(C(N)=O)CC[C@]3(C)C(=CC[C@@H]4[C@@]5(C)C/C(=C/c6cccnc6)C(=O)C(C)(C)[C@@H]5CC[C@]43C)[C@@H]2C1

["> 100 µM", "> 100 µM", "> 100 µM", "> 100 µM", "> 100 µM", "> 100 µM"]

Lab note: each compound below needs its TGI filled in.
1. S=C(Nc1ccccc1)Nc1ccccc1SC(/C=C/NNC1=NC(c2ccccc2)C(c2ccccc2)=NN1)c1ccccc1 (centres undefined)
2. CC(=O)N1CCC(Nc2cc(C(=O)NC[C@H](O)CN3CCc4ccccc4C3)ncn2)CC1
3. Cc1nc(N)nn1C1OCC(O)C(O)C1O (centres undefined)
4. CCCCCCCCCCC(O)CCCCCCC(=O)O (centres undefined)
5. O=C(Nc1ccc([As]=[As]c2ccc(NC(=O)c3ccccc3)cc2)cc1)c1ccccc1 (centres undefined)

["> 100 µM", "> 100 µM", "> 100 µM", "> 100 µM", "1.81 µM"]

###

tested on: SF-539 CNS; test: NCI tumour cell line growth inhibition, 48 h
Hi there, I'd appreciate the recorded TGI for every entry that follows.

The following compounds have reported results that may help.
Cc1cc(C2CC(O)C(CO)O2)c(Cl)cc1Cl (stereo not given) | > 100 µM
CCOC(=O)c1cn2c(n1)sc1cc(C)c(C)cc12 | 29.6 µM
COc1cc([C@@H]2C3C(=O)c4ccccc4C3[C@@H](c3cc(OC)c(OC)c(OC)c3)C23Cc2ccccc2C3=O)cc(OC)c1OC (stereo not given in full) | > 100 µM
COc1ccc(C(O)c2cc(OC)c(OC)c(OC)c2)cc1 (stereo not given) | 63.7 µM
O=C(Nc1ccc(Cl)c(Cl)c1)C(=O)C(C(=O)c1ccccc1F)C1OC(=O)c2ccccc21 (stereo not given) | 28.1 µM
CC(C)C[C@H](NC(=O)Cn1ccc(Nc2ccccc2)cc1=O)B(O)O | 5.81 µM

Lab note: each compound below needs its TGI filled in.
1. C=C1C(=O)OC2/C=C(/CO)C3(O)CC(O)C(C)(CC(OC(=O)/C(C)=C/C)C12)O3 (stereo not given)
2. Cc1cc(Nc2ccc3c(c2)OCO3)c2cc3c(cc2n1)OCO3

1. 61.4 µM
2. 6.73 µM

Lab note: each compound below needs its TGI filled in.
1. CC(=O)N1CCC(Nc2cc(C(=O)NC[C@H](O)CN3CCc4ccccc4C3)ncn2)CC1
2. CC1OC(OC2C(O)CC(OC3C(O)CC(OC4CCC5(C)C(CCC6C5CCC5(C)C(C7=CC(=O)OC7)CCC65O)C4)OC3C)OC2C)CC(O)C1O (stereo not given)
3. CC(C)(CN1CCCCC1)C(=O)/C=C/c1ccc(Cl)c(Cl)c1
4. CN/N=C(\C)c1c(O)cc(C)oc1=O
5. CSC(=NC#N)S/C=C/C(=O)c1ccc(Cl)cc1

1: > 100 µM; 2: 0.0219 µM; 3: 4.6 µM; 4: > 100 µM; 5: 52.3 µM

Lab note: each compound below needs its TGI filled in.
1. COc1ccc(N2CCN(C(=O)c3ccc(C(F)(F)F)nc3Nc3cc(Cl)ccc3C)CC2)cc1
2. CC(=O)C1C(=O)C(=O)N(c2ccc(Cl)c(Cl)c2)C1=O (stereo not given)
3. COc1nc(Cl)nc(Cl)c1Cl (tested in a mixture with another compound)
4. O=C(CCc1ccc(O)c(O)c1)NCCc1cc(O)cc(OCc2ccccc2)c1
5. CC(=O)NC(CC(C)C)C(=O)NC(CC(C)C)C(=O)NC(C=O)CCCN=C(N)N (stereo not given)

24.7 µM
> 100 µM
21.6 µM
> 100 µM
> 100 µM

Lab note: each compound below needs its TGI filled in.
1. COC(=O)C1=C(C(=O)OC)C2(CCCCCC2=O)OC1=O (stereo not given)
2. CN1c2ccccc2NC(CC(=O)O)C2CC=CN21 (stereo not given)

> 100 µM
> 100 µM
